Overview of recorded TGI for various compounds
Test system: NCI-H460 lung
experiment_summary: NCI tumour cell line growth inhibition, 48 h

- smiles_repr: "O=S(=O)(c1ccccc1)C(c1ccc2ccccc2n1)S(=O)(=O)c1ccccc1"
  subject_of_test: "NCI-H460 lung"
  TGI: "> 100 µM"
- smiles_repr: "O=[N+]([O-])c1ccc(N=Nc2c(O)ccc3ccccc23)c([N+](=O)[O-])c1"
  subject_of_test: "NCI-H460 lung"
  TGI: "> 100 µM"
- smiles_repr: "O=c1c2cc(-c3ccccc3)sc2nc2n1N=C(c1ccc(Cl)cc1)CS2"
  subject_of_test: "NCI-H460 lung"
  TGI: "> 100 µM"

Values from PubChem BioAssay (NCI)
